# measurementTarget: UniProtKB P21453
# Sequence (P21453 whole entry): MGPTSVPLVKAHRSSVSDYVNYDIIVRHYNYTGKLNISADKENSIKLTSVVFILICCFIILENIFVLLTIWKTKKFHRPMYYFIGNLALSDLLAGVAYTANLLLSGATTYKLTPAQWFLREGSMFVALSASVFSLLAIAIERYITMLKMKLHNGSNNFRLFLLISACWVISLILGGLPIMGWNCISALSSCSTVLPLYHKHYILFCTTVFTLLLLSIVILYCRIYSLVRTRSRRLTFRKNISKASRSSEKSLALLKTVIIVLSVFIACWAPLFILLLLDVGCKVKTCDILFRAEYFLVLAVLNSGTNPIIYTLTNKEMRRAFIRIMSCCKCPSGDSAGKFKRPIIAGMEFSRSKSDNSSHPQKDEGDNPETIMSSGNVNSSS
# assaySummary: Modulation of S1PR1 (unknown origin)
pEC50: −log10 of the molar value.
assayMetric: pEC50

Examples with their reported pEC50 follow.
In [3]: df
Out[3]:
                                   compound  measurementtarget  reportedresult
0  CC(C)Oc1ccc(-c2nc(-c3cccc4c3CCC4NCCC(=O)O)no2)cc1C#N (centres undefined)   UniProtKB P21453           11.10
1  C[C@H](Oc1ccc(-c2nc(-c3ccc4[nH]cnc4c3)no2)cc1C(F)(F)F)C(F)(F)F [ASP-4058]   UniProtKB P21453            8.10
2  CCCCCCCCCCCCC/C=C/[C@@H](O)[C@@H](N)COP(=O)(O)O   UniProtKB P21453            7.90
3  CC(C)Oc1ncc(-c2nc(-c3cccc4c3ccn4CCCC(=O)O)no2)cc1Cl [GSK-2018682]   UniProtKB P21453            7.70
4  CCC/N=C1\S/C(=C\c2ccc(OC[C@H](O)CO)c(Cl)c2)C(=O)N1c1ccccc1C [PONESIMOD]   UniProtKB P21453            8.00

[P] CCCCC/C=C/C/C=C/CCCCCCCC(=O)OC(CO)COP(=O)(O)O (centres undefined)
[Q] CC(C)Oc1ccc(-c2nc(-c3cccc4c3CC[C@@H]4N)no2)cc1C#N
[R] O=C(O)C1CN(Cc2ccc(OCc3ccc(Cl)c(Cl)c3)cc2)C1
[S] NC(CO)(CCc1ccc(Sc2cccc(Oc3ccccc3)c2)cc1Cl)COP(=O)(O)O (centres undefined)
Input: Arrange these 4 compounds in increasing order of pEC50. Answer format: list of labels, ordered as asked.
Output: P, R, S, Q
(P: 5.60, R: 6.40, S: 9.10, Q: 9.60)
